Experiment: physchem
Conditions: 25 °C, water
propertyMeasured: solubility

Q: Any idea what its solubility is? The molecule is C=C1C[C@@]23CC[C@H]4[C@@](C)(CCC[C@@]4(C)C(=O)O[C@@H]4O[C@H](CO)[C@@H](O)[C@H](O)[C@H]4O)[C@@H]2CC[C@]1(O[C@@H]1O[C@H](CO)[C@@H](O)[C@H](O)[C@H]1O)C3 [Rubusoside]
Result: ~400 mg/mL

* * *

Assay: physchem
Conditions: 25 °C, water, thermodynamic from solid
Below, each of the compounds is paired with its reported solubility value.
Write it as a number; the unit µg/mL goes unstated.

CO[C@H]1C[C@H](O[C@H]2CC[C@@]3(C)[C@H](CC[C@@H]4[C@@H]3CC[C@]3(C)[C@@H](C5=CC(=O)OC5)[C@@H](OC(C)=O)C[C@]43O)C2)O[C@@H](C)[C@@H]1O [Oleandrin, oleandrin] :: 3

Let us move to another entry and its solubility.
Q: Any idea what its solubility is? The compound is C[C@H]1O[C@@H](O[C@H]2[C@@H](O)C[C@H](O[C@H]3[C@@H](O)C[C@H](O[C@H]4CC[C@@]5(C)[C@H](CC[C@@H]6[C@@H]5C[C@@H](O)[C@]5(C)[C@@H](C7=CC(=O)OC7)CC[C@]65O)C4)O[C@@H]3C)O[C@@H]2C)C[C@H](O)[C@@H]1O [Digoxin, digoxin]
Result: 19
